assay: fission yeast growth modulation, primary screen, strain 972, OD600, 24 h, no modulator (AID 1090);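 further: basal condition with compound alone and no growth modifier present; test concentration not given here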; details: S. pombe 972 growth, higher = more signal, called active from +8 up or from −8 down
Our labelling divides records by z-score into ranges: class A (below -0.9), class B (-0.9 to below 0.1), class C (0.1 or more)

## Task Entry CSCC[C@@H]1NC(=O)CC=C[C@@H](C)COC(=O)[C@@H](C)COC1=O belongs to which category?
## Result class B

## Task Entry COc1ccc(C#C[C@@H]2C=C[C@H](OC(C)=O)[C@@H](COC(C)=O)O2)cc1 belongs to which category?
## Result class A

## Task Entry CC[C@@H](c1ccccc1)n1c(=O)n2n(c1=O)[C@H]1[C@H](O)[C@@H]3O[C@@H]3C(=NOC[C@@H](O)COCc3ccco3)[C@H]1CC2 belongs to which category?
## Result class B

## Task Entry COC(=O)[C@H](C)NC(=O)CCC1CC(OC(=O)NCc2ccc3c(c2)OCO3)CC2(CCCC(COC(=O)NCCc3ccccc3OC)O2)O1 (stereo not given in full) belongs to which category?
## Result class C

## Task Entry CCOC(=O)NN=C1C[C@@H](O)[C@@H](O)[C@@H]2[C@@H]3C(=O)N([C@@H](C)c4ccccc4)C(=O)[C@@H]3CC[C@@H]12 belongs to which category?
## Result class C

## Task Entry CO[C@H]1COC(=O)CC=C[C@H](C)[C@@H](OC)COC(=O)[C@H](C)COC(=O)CC=C[C@@H]1C belongs to which category?
## Result class B

## Task Entry O=C1CCCC=C1C(O)CCOC(c1ccccc1)(c1ccccc1)c1ccccc1 (stereo not given) belongs to which category?
## Result class A

## Task Entry CC(C)CON=C1C[C@@H](O)[C@@H](O)[C@@H]2[C@@H]3C(=O)N(c4cccc(Oc5ccccc5)c4)C(=O)[C@@H]3CC[C@@H]12 belongs to which category?
## Result class C

## Task Entry COC(=O)[C@@H]1CC[C@H](C)[C@@H](c2ccc(C)cc2)N1C(=O)c1ccc(C=NOC[C@@H](C)[C@H](OCc2ccccc2)C(C)C)cc1 belongs to which category?
## Result class A

## Task Entry CCOC(=O)[C@H](Cc1ccccc1)NC(=O)CCC1CC(OC(=O)NCc2ccc3c(c2)OCO3)CC2(CCCC(COC(=O)NCCc3ccccc3OC)O2)O1 (stereo not given in full) belongs to which category?
## Result class C

## Task Entry C=CC[C@@H]1C=C[C@H](ON=C2[C@H]3CCn4c(=O)n(-c5ccccc5)c(=O)n4[C@H]3[C@H](O)[C@@H]3O[C@H]23)[C@@H](CO)O1 belongs to which category?
## Result class C

## Task Entry CCCCC#C[C@@H]1C=C[C@H](Oc2cc(OC)c(OC)c(OC)c2)[C@@H](COC(=O)OCC)O1 belongs to which category?
## Result class A

## Task Entry COc1ccc(COC(=O)NN=C2C[C@@H](O)[C@@H](O)[C@@H]3[C@@H]4C(=O)N(Cc5ccccc5)C(=O)[C@@H]4CC[C@H]23)cc1 belongs to which category?
## Result class B

## Task Entry O=C1[C@H]2[C@H]3[C@H](O)[C@H](O)CC(=NOCc4ccccc4)[C@H]3CC[C@H]2C(=O)N1Cc1ccc2c(c1)OCO2 belongs to which category?
## Result class B

----------
Record form. Attribute: composite z-score. Fill in for each entry.
test: binders of probe aFSTL3 on microarray, primary screen, stem cell growth factor project, biochemical, small-molecule microarray, fluorescence 635/667 (AID 1064); settings: higher = more signal;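 further: measures binding of the biotinylated anti-FSTL3 antibody to printed compounds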
Please reply with the value in numeric form only.

For this molecule ( COc1ccc(O[C@H]2C=C[C@@H](c3ccccc3)O[C@@H]2COC(=O)CCC(C)=NOC(C)CN2CCCc3nc(C)c(C)cc32)cc1 (stereo partly specified) ), measured composite z-score is -0.451

For this molecule ( O=C(NN=C1C[C@@H](O)[C@@H](O)[C@@H]2[C@@H]3C(=O)N(C[C@@H]4CCCO4)C(=O)[C@@H]3CC[C@@H]12)OCc1ccccc1 ), measured composite z-score is -0.51

For this molecule ( CO[C@H]1COC(=O)[C@@H](C)COC(=O)[C@H](C)NC(=O)CC=C[C@H]1C ), measured composite z-score is -0.451

For this molecule ( COc1cccc([C@H]2Oc3ccc(OC)cc3C(=NO[C@@H](C)c3cn([C@H](CO)Cc4ccccc4)nn3)[C@@H]2O)c1 ), measured composite z-score is -0.234

For this molecule ( CCC1=NOC(CCC2CC(OC(=O)NCc3cccc4c3OCO4)CC3(CCCC(COC(=O)NCCc4ccccc4OC)O3)O2)C1 (stereo unspecified) ), measured composite z-score is -0.173

For this molecule ( C#CCCCON=C1C[C@@H](O)[C@@H](O)[C@@H]2[C@@H]3C(=O)N(C(C)(C)C)C(=O)[C@@H]3CC[C@H]12 ), measured composite z-score is 1.86

For this molecule ( C[C@@H]1C=CCC(=O)OC[C@H]2O[C@@H](C=C[C@@H]2O)[C@H](C)C=CCC(=O)OC1 ), measured composite z-score is -0.711

For this molecule ( CO[C@H](C1CCCCC1)[C@H](C)C=CCC(=O)OCCCc1ccccc1 ), measured composite z-score is -0.13

For this molecule ( CC(C)CON=C1C[C@@H](O)[C@@H](O)[C@@H]2[C@@H]3C(=O)N(c4ccc(F)cc4F)C(=O)[C@@H]3CC[C@H]12 ), measured composite z-score is -0.337

For this molecule ( CC(CCN1CCCCc2nc(C)c(C)cc21)=NOC[C@@H](O)COCc1ccco1 ), measured composite z-score is -0.471

For this molecule ( COc1cccc([C@H]2Oc3ccc(OC)cc3C(=NOC[C@@H](O)[C@H]3O[C@@H]4OC(C)(C)O[C@@H]4[C@H]3O)[C@@H]2O)c1 ), measured composite z-score is -0.117

For this molecule ( CCOC(=O)NN=C1C[C@@H](O)[C@@H](O)[C@@H]2[C@@H]3C(=O)N(Cc4ccc5c(c4)OCO5)C(=O)[C@@H]3CC[C@H]12 ), measured composite z-score is -0.428

For this molecule ( CCOC(=O)[C@H](Cc1ccccc1)NC(=O)CCC1CC(OC(=O)NCc2cccc3ccccc23)CC2(CCCC(COC(=O)NCC(c3ccccc3)c3ccccc3)O2)O1 (stereo partly specified) ), measured composite z-score is -0.222

For this molecule ( CO[C@H]1COC(=O)[C@@H](C)COC(=O)[C@@H](OCc2ccccc2)C=C[C@@H]1C ), measured composite z-score is -0.133

For this molecule ( CCOC(=O)[C@H](CC(C)C)NC(=O)CCC1CC(OC(=O)NCc2cccc3ccccc23)CC2(CCCC(COC(=O)NCCOc3ccccc3)O2)O1 (stereo partly specified) ), measured composite z-score is -0.646

For this molecule ( CCCCC#C[C@@H]1C=C[C@H](OC(C)=O)[C@@H](COC(C)=O)O1 ), measured composite z-score is -0.515

For this molecule ( O=c1n(Cc2cc3c(cc2Cl)OCO3)c(=O)n2n1CC[C@@H]1C(=NOC[C@@H](O)COCc3ccco3)[C@H]3O[C@H]3[C@@H](O)[C@@H]12 ), measured composite z-score is -0.247

For this molecule ( CCOC(=O)[C@H](CC(C)C)NC(=O)CCC1CC(OC(=O)NCCc2ccc(F)cc2)CC2(CCCC(COC(=O)NCCc3ccccc3OC)O2)O1 (stereo partly specified) ), measured composite z-score is -0.329

For this molecule ( COc1ccc(O[C@@H]2[C@H](O)CO[C@H]2C=Cc2ccccc2)cc1 ), measured composite z-score is -0.323

For this molecule ( COC(=O)CC=C[C@@H](C)[C@@H](C=NO[C@H](C)c1cn([C@@H]2COC[C@H]2O)nn1)NS(=O)(=O)c1ccc(C)cc1 ), measured composite z-score is -0.279

For this molecule ( Cc1cc2c(c(=O)o1)[C@@H](O)[C@H]1O[C@H]1C2=O ), measured composite z-score is -0.494

For this molecule ( O=C1CCCC=C1C(CCc1ccccc1)OC(=O)c1ccc(Br)cc1 (stereo unspecified) ), measured composite z-score is -0.351

For this molecule ( COC(=O)C=CCCc1coc(C=CCNC(=O)OC)n1 ), measured composite z-score is -0.0195

For this molecule ( COc1cc(O)c(C(=O)C=Cc2ccc3c(c2)OCO3)c(OC)c1 ), measured composite z-score is -0.132

For this molecule ( CCOC(=O)[C@H](CC(C)C)NC(=O)CCC1CC(OC(=O)NCc2ccc3c(c2)OCO3)CC2(CCCC(COC(=O)NCC(c3ccccc3)c3ccccc3)O2)O1 (stereo partly specified) ), measured composite z-score is -0.354

For this molecule ( CC(C)CCN1CCc2nc(COc3ccccc3)c3c(c2C1)CO[C@@H](C)C3 ), measured composite z-score is 0.188

For this molecule ( C#CCCCON=C1C[C@@H](O)[C@@H](O)[C@@H]2[C@@H]3C(=O)N(CCC(=O)OCC)C(=O)[C@@H]3CC[C@H]12 ), measured composite z-score is -0.467

For this molecule ( COc1ccc(O[C@H]2C=C[C@@H](c3ccccc3)O[C@@H]2CON=C(C)CCN2CCc3nc(-c4ccccc4)c(-c4ccccc4)cc3C2)cc1 ), measured composite z-score is -0.311

For this molecule ( Cc1ccc(S(=O)(=O)N[C@H]2COC(=O)CC=C[C@@H](C)COC(=O)CC=C[C@@H]2C)cc1 ), measured composite z-score is -0.537

For this molecule ( COC(=O)CC=C[C@@H](C)[C@@H](C=NOC[C@H]1O[C@H](c2ccccc2)C=C[C@@H]1Oc1ccc(OC)cc1)NS(=O)(=O)c1ccc(C)cc1 ), measured composite z-score is 0.577

For this molecule ( CC(C)(C)N1C(=O)[C@H]2[C@H]3[C@H](O)C=CC(=O)[C@@H]3CC[C@H]2C1=O ), measured composite z-score is -0.623
